Each entry below lists one item and its recorded viability at 100 µM value.
System: human breast carcinoma (MDA-MB-231)
Assay: MTS metabolic activity assay, MDA-MB-231 cells
Format: cell-based
Details: Homo sapiens; MDA-MB-231, 100 µM, 72 h; read-out: Cell metabolic activity (MTS), % of untreated control

{"molecule": "CC1(C)SC(NC2CCCC2)=NC1=O [Compound 3e]", "viability at 100 µM": "95.7%"}
{"molecule": "CC(C)C1SC(NC2CCCC2)=NC1=O (stereo not drawn) [Compound 3d]", "viability at 100 µM": "94.4%"}
{"molecule": "O=C1N=C(NC2CCCC2)SC1c1ccc(Br)cc1 (stereo not drawn) [Compound 3g]", "viability at 100 µM": "82%"}
{"molecule": "CCC1SC(NC2CCCC2)=NC1=O (stereo not drawn) [Compound 3b]", "viability at 100 µM": "95.3%"}
{"molecule": "CC1SC(NC2CCCC2)=NC1=O (stereo not drawn) [Compound 3a]", "viability at 100 µM": "105%"}
{"molecule": "O=C1N=C(NC2CCCC2)SC12CCC2 [Compound 3i]", "viability at 100 µM": "85.1%"}

###

Tested on: human pancreatic carcinoma (PANC-1)
Assay: MTS metabolic activity assay, PANC-1 cells
Format: cell-based
Settings: Homo sapiens; PANC-1, 20 µM, 72 h; read-out: Cell metabolic activity (MTS), % of untreated control
Procedure: The BJ (CRL-2522), Caco-2 (HTB-37), PANC-1 (CRL-1469), U-118 MG (HTB-15), SK-MEL-30 (ACC 151), and MDA-MB-231 (HTB-26) cell lines were purchased from ATCC (Manassas, VA, USA) or DSMZ (Braunschweig, GERMANY). […]

{"molecule": "O=C1N=C(NC2CCCC2)SC12CCCCC2", "unit_text": "%", "viability at 20 µM": 96}
{"molecule": "O=C1N=C(NC2CCCC2)SC12CCC2", "unit_text": "%", "viability at 20 µM": 93.3}
{"molecule": "O=C1N=C(NC2CCCC2)SC1c1ccc(Br)cc1 (stereo not drawn)", "unit_text": "%", "viability at 20 µM": 122}
{"molecule": "CCCC1SC(NC2CCCC2)=NC1=O (stereo not drawn)", "unit_text": "%", "viability at 20 µM": 106}
{"molecule": "CC(C)C1SC(NC2CCCC2)=NC1=O (stereo not drawn)", "unit_text": "%", "viability at 20 µM": 103}
{"molecule": "CC1SC(NC2CCCC2)=NC1=O (stereo not drawn)", "unit_text": "%", "viability at 20 µM": 104}
{"molecule": "O=C1N=C(NC2CCCC2)SC1c1ccccc1 (stereo not drawn)", "unit_text": "%", "viability at 20 µM": 102}
{"molecule": "CC1(C)SC(NC2CCCC2)=NC1=O", "unit_text": "%", "viability at 20 µM": 101}
{"molecule": "CCC1SC(NC2CCCC2)=NC1=O (stereo not drawn)", "unit_text": "%", "viability at 20 µM": 102}

###

Test system: skin melanoma (SK-MEL-30)
Assay: MTS metabolic activity assay, SK-MEL-30 cells
Type: cell-based
Settings: Homo sapiens; SK-MEL-30, 200 µM, 72 h; read-out: Cell metabolic activity (MTS), % of untreated control
Each entry below carries its recorded viability at 200 µM.

{"compound": "O=C1N=C(NC2CCCC2)SC12CCCCC2", "unit_text": "%", "viability at 200 µM": 109}
{"compound": "CC1(C)SC(NC2CCCC2)=NC1=O", "unit_text": "%", "viability at 200 µM": 106}
{"compound": "CCCC1SC(NC2CCCC2)=NC1=O (centres unmarked)", "unit_text": "%", "viability at 200 µM": 95.9}
{"compound": "O=C1N=C(NC2CCCC2)SC1c1ccc(Br)cc1 (centres unmarked)", "unit_text": "%", "viability at 200 µM": 71.5}
{"compound": "CCC1SC(NC2CCCC2)=NC1=O (centres unmarked)", "unit_text": "%", "viability at 200 µM": 101}
